Taken from PubChem BioAssay (NCI).

system: IGROV1 ovarian; assay: NCI-60 one-dose screen, 48 h; conditions: 10 µM unless noted
Compounds without any hit were thinned out: in the full panel of roughly 83,000, 20% have a hit. The source made the active and inactive calls. Rule for the calls: active = growth percent below 10; inactive = the rest.
Returns: one label drawn from active, inactive

Observe how each entry below is paired with its result.
# compound, system, discrete-label
records = [
    ("N#Cc1c(-c2cccc(F)c2)cc(-c2ccc(Br)s2)[nH]c1=O", "IGROV1 ovarian", "inactive"),
    ("COc1cccc(C2C3=C(COC3=O)N(CCO)c3cc4c(cc32)CCC4)c1 (stereo not given)", "IGROV1 ovarian", "active"),
    ("Nc1c(Br)cc(Br)cc1-c1n[nH]c(=O)[nH]c1=O", "IGROV1 ovarian", "inactive"),
    ("COc1cc(C2C3=C(COC3=O)N(CCO)c3cc4c(cc32)OCO4)cc(OC)c1O (stereo not given)", "IGROV1 ovarian", "inactive"),
    ("NS(=O)(=O)c1ccc(C(=O)N/N=C(\\CS(=O)(=O)c2ccccc2)c2cc3cc(Br)ccc3o2)cc1", "IGROV1 ovarian", "inactive"),
]

-- ask Test call, this compound: O=C(O)CCN1CCN(c2cccc(Cl)c2)CC1
-- reply inactive

-- ask Same lookup for Cc1nc2cc(Nc3nc(NCCN)nc(Nc4ccc(F)cc4)n3)ccc2n1Cc1ccccc1 , please.
-- reply inactive

-- ask Same lookup for OB(O)c1ccccc1 , please.
-- reply inactive

-- ask Same lookup for NC(=S)N/N=C1\c2ccccc2-c2c(F)c(F)c(F)c(F)c21 , please.
-- reply inactive

-- ask Same lookup for COC(=O)c1c2c(c(C)[n+]([O-])c1C)C(=O)C=C(NCc1ccc(Cl)cc1)C2=O , please.
-- reply active
